Target: T1, natriuretic peptide receptor-B (human)
T1 chain: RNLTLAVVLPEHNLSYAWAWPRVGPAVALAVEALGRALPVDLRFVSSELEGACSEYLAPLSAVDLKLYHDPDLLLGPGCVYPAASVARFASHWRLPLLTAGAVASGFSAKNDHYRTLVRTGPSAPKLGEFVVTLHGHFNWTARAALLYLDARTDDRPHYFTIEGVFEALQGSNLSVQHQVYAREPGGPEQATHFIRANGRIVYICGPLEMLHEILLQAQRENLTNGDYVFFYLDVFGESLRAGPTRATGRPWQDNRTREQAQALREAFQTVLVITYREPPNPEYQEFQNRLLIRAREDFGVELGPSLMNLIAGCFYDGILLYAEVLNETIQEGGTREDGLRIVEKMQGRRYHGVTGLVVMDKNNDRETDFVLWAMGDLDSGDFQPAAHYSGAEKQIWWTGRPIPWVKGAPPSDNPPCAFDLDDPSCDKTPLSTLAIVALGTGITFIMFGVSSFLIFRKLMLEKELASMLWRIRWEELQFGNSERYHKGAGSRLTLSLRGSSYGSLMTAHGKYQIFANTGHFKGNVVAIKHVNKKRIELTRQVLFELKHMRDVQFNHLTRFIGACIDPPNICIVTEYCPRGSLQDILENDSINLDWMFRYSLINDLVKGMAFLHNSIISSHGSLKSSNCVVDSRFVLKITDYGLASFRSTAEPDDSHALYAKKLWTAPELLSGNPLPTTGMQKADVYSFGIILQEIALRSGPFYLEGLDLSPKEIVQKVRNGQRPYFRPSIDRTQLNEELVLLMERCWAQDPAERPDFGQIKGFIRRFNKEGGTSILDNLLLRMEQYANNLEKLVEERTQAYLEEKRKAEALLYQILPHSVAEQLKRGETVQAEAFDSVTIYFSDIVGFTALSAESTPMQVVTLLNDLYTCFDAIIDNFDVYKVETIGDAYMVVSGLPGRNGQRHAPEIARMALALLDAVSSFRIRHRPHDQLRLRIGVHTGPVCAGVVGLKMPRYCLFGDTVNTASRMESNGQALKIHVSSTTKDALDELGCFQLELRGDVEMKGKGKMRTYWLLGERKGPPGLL
Assay: cell-based or functional assay
Square brackets hold non-standard residues; d marks the D form. * marks the point of attachment. Hyp = O=C(O)[C@@H]1C[C@@H](O)CN1; NMeF = CN[C@@H](Cc1ccccc1)C(=O)O; NMeL = CN[C@@H](CC(C)C)C(=O)O; Lauroyl = CCCCCCCCCCCC(=O)*; Octanoyl = CCCCCCCC(=O)*
testReadout: EC50 group, cGMP in GTM-3 cells

binder: Lauroyl-FRL[Hyp][NMeL]DRI-NH2 (not fully specified (some residues); printed as 832-Phe-arg-Leu-Hyp-Nml-Asp-Arg-Ile-NH2) [JAL-1214]
EC50 group, cGMP in GTM-3 cells: ≤ 5 µM

Here's the next entry for you.
Prompt line: If you can, please state the reported EC50 group, cGMP in GTM-3 cells value of Octanoyl-A[NMeF]KL[Hyp][NMeL]DRI-NH2 (not fully specified (some residues); printed as Occ-ala-Nmf-lys-Leu-Hyp-Nml-Asp-Arg-Ile-) [JAL-1268] .
Response line: ≤ 5 µM
